# experimental.target: Aurora kinase A (Homo sapiens)
# Sequence (whole entry): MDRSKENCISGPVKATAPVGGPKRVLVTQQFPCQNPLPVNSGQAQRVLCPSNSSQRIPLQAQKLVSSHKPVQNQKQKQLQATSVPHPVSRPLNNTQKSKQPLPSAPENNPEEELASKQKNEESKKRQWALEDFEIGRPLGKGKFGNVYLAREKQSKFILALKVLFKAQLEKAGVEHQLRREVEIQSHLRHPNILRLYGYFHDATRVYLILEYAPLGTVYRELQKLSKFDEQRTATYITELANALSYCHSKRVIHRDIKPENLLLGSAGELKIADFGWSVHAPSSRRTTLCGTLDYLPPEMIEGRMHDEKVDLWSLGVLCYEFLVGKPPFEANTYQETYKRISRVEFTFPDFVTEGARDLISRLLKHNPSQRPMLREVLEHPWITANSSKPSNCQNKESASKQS
# protocol.details: Inhibition of Aurora A kinase at 10 uM
Classification field. Basis: inhibition. Definitions: Low = under 20%, Medium = from 20% up to 30%, High = 30% and over

compound=Cc1cc2[nH]c3c(c(=O)n2n1)CN(Cc1ccccc1)C3=O label=Low
compound=O=C1c2nc3cc(-c4ccco4)nn3c(O)c2CN1Cc1ccccc1 label=High
compound=O=C1c2[nH]c3cc(-c4ccco4)nn3c(=O)c2CN1Cc1ccc(F)cc1 label=Medium
compound=O=C1c2nc3cc(-c4ccccc4)nn3c(O)c2CN1Cc1ccccc1 label=Medium
compound=COc1cc(CN2Cc3c([nH]c4cc(-c5ccco5)nn4c3=O)C2=O)cc(OC)c1 label=Low
compound=O=C1c2[nH]c3cc(-c4ccco4)nn3c(=O)c2CN1Cc1ccccn1 label=Medium
compound=COc1ccc(CN2Cc3c([nH]c4cc(-c5ccco5)nn4c3=O)C2=O)cc1 label=High
compound=CC(=O)Nc1cccc(CN2Cc3c([nH]c4cc(-c5ccco5)nn4c3=O)C2=O)c1 label=High
compound=O=C1c2[nH]c3ccnn3c(=O)c2CN1Cc1ccccc1 label=Low
